Assay: photoluminescence quantum yield (fraction); solvent given as SMILES
Conditions: in CC1CCCCC1
Catalogue of compounds with associated photoluminescence quantum yield
# answer = number (no unit)

Illustrative cases are given below, each with its answer.
CC(C)(C)c1ccc2oc(-c3ccc(-c4nc5cc(C(C)(C)C)ccc5o4)s3)nc2c1 ... 0.66
COC(=O)C(NC(=O)OC(C)(C)C)c1ccc2oc(-c3ccc(OC(=O)c4ccccc4)cc3O)nc2c1 (stereo not given) ... 0.03
COc1ccc(C2=C3C(C)=CC(C)=[N+]3[B-](F)(F)n3c(/C=C/c4ccc(N(C)C)cc4)cc(C)c32)cc1 ... 0.86
CCCOc1ccc(/C=C/C=C/C=C/c2ccc([N+](=O)[O-])cc2)cc1 ... 0.25

Consider the record given below.
Look up photoluminescence quantum yield for this compound: COC(=O)C(NC(=O)OC(C)(C)C)c1ccc2oc(-c3ccc(OC(=O)c4ccccc4)cc3OC(=O)c3ccccc3)nc2c1 (stereo not given) 0.003
